- Assayed Target: recombinant guanylate cyclase reporter cell line (Rattus norvegicus)
- Construct: expressed in transfected cells
- Sequence (P20595 1-619): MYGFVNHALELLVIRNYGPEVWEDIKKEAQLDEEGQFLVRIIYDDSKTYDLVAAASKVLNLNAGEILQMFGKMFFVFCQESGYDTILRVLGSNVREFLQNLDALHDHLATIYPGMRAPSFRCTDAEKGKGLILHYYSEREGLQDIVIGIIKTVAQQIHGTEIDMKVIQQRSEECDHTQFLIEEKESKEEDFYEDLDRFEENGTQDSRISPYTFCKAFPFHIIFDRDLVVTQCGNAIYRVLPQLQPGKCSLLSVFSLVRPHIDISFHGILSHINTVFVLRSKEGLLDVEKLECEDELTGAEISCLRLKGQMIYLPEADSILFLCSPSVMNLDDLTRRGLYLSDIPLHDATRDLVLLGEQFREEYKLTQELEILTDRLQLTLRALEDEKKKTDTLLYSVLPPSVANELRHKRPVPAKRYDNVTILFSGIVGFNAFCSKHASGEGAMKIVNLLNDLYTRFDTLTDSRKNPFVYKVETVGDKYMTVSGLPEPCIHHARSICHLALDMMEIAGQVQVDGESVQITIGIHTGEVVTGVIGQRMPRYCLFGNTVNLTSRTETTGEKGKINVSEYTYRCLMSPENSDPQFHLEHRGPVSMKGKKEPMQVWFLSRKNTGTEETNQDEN
- Sequence (P19686 1-690 partner): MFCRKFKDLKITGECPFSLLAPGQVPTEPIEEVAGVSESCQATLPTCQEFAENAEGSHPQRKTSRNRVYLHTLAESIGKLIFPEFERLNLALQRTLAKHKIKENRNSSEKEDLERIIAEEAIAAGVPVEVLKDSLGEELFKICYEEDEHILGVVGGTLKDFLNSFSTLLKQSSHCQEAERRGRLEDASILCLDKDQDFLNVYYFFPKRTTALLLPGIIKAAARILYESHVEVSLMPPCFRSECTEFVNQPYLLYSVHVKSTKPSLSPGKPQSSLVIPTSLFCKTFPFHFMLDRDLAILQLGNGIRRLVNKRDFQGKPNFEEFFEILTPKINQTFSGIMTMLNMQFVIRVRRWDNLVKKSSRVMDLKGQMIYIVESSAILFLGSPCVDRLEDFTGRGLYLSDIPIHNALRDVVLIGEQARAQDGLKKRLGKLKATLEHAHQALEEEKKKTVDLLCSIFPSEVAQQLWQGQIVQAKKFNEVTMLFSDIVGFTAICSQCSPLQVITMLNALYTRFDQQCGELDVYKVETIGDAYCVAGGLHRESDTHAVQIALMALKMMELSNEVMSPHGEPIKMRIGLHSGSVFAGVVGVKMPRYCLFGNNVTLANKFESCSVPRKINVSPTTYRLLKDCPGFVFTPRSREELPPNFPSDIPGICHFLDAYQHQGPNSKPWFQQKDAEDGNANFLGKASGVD
- Assay Explanation: Effect on a recombinant guanylate cyclase reporter cell line
- Format: cell-based
- Run Parameters: minimum effective concentration
Attribute Measured: MEC (nM)

>  <Compound>
O=C(O)c1cnn(C2CCCN(c3cc(Cl)ccc3-c3ccc(N4CCN(CC(F)(F)F)CC4)nc3)C2)c1C(F)F (single isomer, unassigned; enantiomer 1) [Example 64]

>  <Assayed Target>
recombinant guanylate cyclase reporter cell line (Rattus norvegicus)

>  <MEC (nM)>
1.0

$$$$
>  <Compound>
O=C(O)c1cnn(C2CCCN(c3cc(Cl)ccc3-c3ccc(N4CCN(CC5CC5)CC4)cc3)C2)c1C(F)F (single isomer, unassigned; enantiomer 1) [Example 10]

>  <Assayed Target>
recombinant guanylate cyclase reporter cell line (Rattus norvegicus)

>  <MEC (nM)>
0.8

$$$$
>  <Compound>
O=C(O)c1cnn(C2CCCN(c3cc(Cl)ccc3-c3ccc(N4CCN(CC5CC5F)CC4)cc3)C2)c1C(F)F (single isomer, unassigned; diastereomer 4) [Example 34]

>  <Assayed Target>
recombinant guanylate cyclase reporter cell line (Rattus norvegicus)

>  <MEC (nM)>
0.3

$$$$
>  <Compound>
CC(C)N1CCN(c2ccc(-c3ccc(Cl)cc3N3CCCC(n4ncc(C(=O)O)c4C(F)F)C3)cc2)CC1 (single isomer, unassigned; enantiomer 2) [Example 6]

>  <Assayed Target>
recombinant guanylate cyclase reporter cell line (Rattus norvegicus)

>  <MEC (nM)>
3.0

$$$$
>  <Compound>
CC(C)C(=O)N1CCN(c2ccc(-c3ccc(Cl)cc3N3CCCC(n4ncc(C(=O)O)c4C(F)F)C3)cc2)CC1 (single isomer, unassigned; enantiomer 2)

>  <Assayed Target>
recombinant guanylate cyclase reporter cell line (Rattus norvegicus)

>  <MEC (nM)>
3.0

$$$$
>  <Compound>
CCC(=O)N1CCC(c2ccc(-c3ccc(Cl)cc3N3CCCC(n4ncc(C(=O)O)c4C(F)F)C3)cc2)CC1 (single isomer, unassigned; enantiomer 2)

>  <Assayed Target>
recombinant guanylate cyclase reporter cell line (Rattus norvegicus)

>  <MEC (nM)>
1.0

$$$$

1. CC(F)(F)CN1CCN(c2ccc(-c3ccc(Cl)cc3N3CCCC(n4ncc(C(=O)O)c4C(F)F)C3)cc2)CC1 (single isomer, unassigned; enantiomer 1) [Example 24]
2. CN1CCN(c2ccc(-c3ccc(Cl)cc3N3CCCC(n4ncc(C(=O)O)c4C(F)F)C3)cc2)CC1 (single isomer, unassigned; enantiomer 1) [Example 1]
3. O=C(O)c1cnn(C2CCCN(c3cc(Cl)ccc3-c3ccc(N4CCN(C5CC5)CC4)cc3)C2)c1C(F)F (single isomer, unassigned; enantiomer 1) [Example 8]
4. CCN1CCN(c2ccc(-c3ccc(Cl)cc3N3CCCC(n4ncc(C(=O)O)c4C(F)F)C3)cc2)CC1 (single isomer, unassigned; enantiomer 2) [Example 4]
5. CN1CCN(c2ccc(-c3ccc(Cl)cc3N3CCCC(n4ncc(C(=O)O)c4C(F)F)C3)cc2)CC1 (single isomer, unassigned; enantiomer 2) [Example 2]
Input line: Please order the records by their reported MEC, lowest number first. Dear reader, please state the labels in the requested order.
Output line: 1, 4, 3, 5, 2
(1: 0.3 nM, 4: 1.3 nM, 3: 3.0 nM, 5: 7.0 nM, 2: 10.0 nM)

I. CCN1CCN(c2ccc(-c3ccc(C(F)(F)F)cc3N3CCCC(n4ncc(C(=O)O)c4C(F)F)C3)cc2)CC1 (single isomer, unassigned; enantiomer 2) [Example 74]
II. CC(C)(C)CN1CCN(c2ccc(-c3ccc(Cl)cc3N3CCCC(n4ncc(C(=O)O)c4C(F)F)C3)cc2)CC1 (single isomer, unassigned; enantiomer 2) [Example 13]
III. O=C(O)c1cnn(C2CCCN(c3cc(Cl)ccc3-c3ccc(N4CCN(CC5CC5(F)F)CC4)cc3)C2)c1C(F)F (single isomer, unassigned; diastereomer 4) [Example 31]
IV. O=C(O)c1cnn(C2CCCN(c3cc(Cl)ccc3-c3ccc(N4CCN(CC5CC(F)(F)C5)CC4)cc3)C2)c1C(F)F (single isomer, unassigned; enantiomer 1)
Input line: Which order do these items take when sorted by rising MEC? List them. Return the labels ranked in the requested order, please.
Output line: IV, III, II, I
(IV: 0.6 nM, III: 1.0 nM, II: 3.0 nM, I: 10.0 nM)

I. CC(C)CN1CCN(c2ccc(-c3ccc(Cl)cc3N3CCCC(n4ncc(C(=O)O)c4C(F)F)C3)cn2)CC1 (single isomer, unassigned; enantiomer 2)
II. O=C(O)c1cnn(C2CCCN(c3cc(Cl)ccc3-c3ccc(N4CCN(CC5CC5F)CC4)cc3)C2)c1C(F)F (mixture of isomers) [Example 32]
Input line: MEC comparison. Which is larger, I or II ? Return value: the label identifying the chosen record.
Output line: I
(I: 3.0 nM, II: 0.3 nM)

A. O=C(O)c1cnn(C2CCCN(c3cc(Cl)ccc3-c3ccc(N4CCN(CC5CC56CC6)CC4)cc3)C2)c1C(F)F (mixture of isomers)
B. CCCN1CCN(c2ccc(-c3ccc(Cl)cc3N3CCCC(n4ncc(C(=O)O)c4C(F)F)C3)cc2)CC1 (single isomer, unassigned; enantiomer 2)
Input line: Two entries are listed, A and B . Which one carries the higher MEC? Write down the label of the entry you select.
Output line: A
(A: 1.0 nM, B: 0.3 nM)
